The values you see were collected from the supplement of paper PMC12645437.

assay-system: T1, CRBN, Q96SW2;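 also: pooled lentiviral library of zinc finger degron-EGFP fusions in mCherry-positive Jurkat cells, FACS-sorted after compound exposure, with degron abundance counted by next-generation sequencing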
T1 chain: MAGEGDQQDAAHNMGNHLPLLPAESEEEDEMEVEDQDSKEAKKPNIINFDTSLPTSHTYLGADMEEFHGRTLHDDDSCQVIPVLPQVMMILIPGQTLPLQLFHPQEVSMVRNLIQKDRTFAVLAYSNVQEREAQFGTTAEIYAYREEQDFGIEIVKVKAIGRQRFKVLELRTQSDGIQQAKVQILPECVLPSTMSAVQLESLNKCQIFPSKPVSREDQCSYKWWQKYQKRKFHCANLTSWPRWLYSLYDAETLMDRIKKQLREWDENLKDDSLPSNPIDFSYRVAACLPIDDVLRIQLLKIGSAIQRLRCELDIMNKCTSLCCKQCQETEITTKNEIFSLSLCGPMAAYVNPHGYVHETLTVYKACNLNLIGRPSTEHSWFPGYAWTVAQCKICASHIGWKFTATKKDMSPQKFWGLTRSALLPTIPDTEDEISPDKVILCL
experiment-description: log2 fold change of degron read counts, EGFP-low vs EGFP+ sorted cells (limma voom), compound-induced degradation; higher = more compound-induced degradation of the degron-EGFP fusion; degrons are variants of IKZF1/3 zinc finger 2; compound dose not given here
setup-conditions: Jurkat; 18 h; compound: thalidomide
In all, about 8,300 sequences were measured (“log2 fold change of degron read counts, EGFP-low vs EGFP+ sorted cells (limma voom), compound-induced degradation”: median about -1.1, highest 2% from about 3.2 on). This excerpt belongs to a sample that is enriched for the highest values.

{"record-sequence": "FDCNICGARFTQKGNLLRHIKL [46F_47D_49N_50I_52G_53A_54R_55F_67L_, Q9UKT9]", "log2 fold change of degron read counts": 1.24}
{"record-sequence": "FQCEICGAGFTQKGNLLRHIKL [46F_47Q_49E_50I_52G_53A_54G_55F_67L_, Q9UKT9]", "log2 fold change of degron read counts": 3.09}
{"record-sequence": "FQCEVCGANFTQKGNLLRHIKL [46F_47Q_49E_50V_52G_53A_54N_55F_67L_, Q9UKT9]", "log2 fold change of degron read counts": 3.56}
{"record-sequence": "FYCEICGALFTQKGNLLRHIKL [46F_47Y_49E_50I_52G_53A_54L_55F_67L_, Q9UKT9]", "log2 fold change of degron read counts": 0.365}
{"record-sequence": "FMCEVCGAAFTQKGNLLRHIKL [46F_47M_49E_50V_52G_53A_54A_55F_67L_, Q9UKT9]", "log2 fold change of degron read counts": 2.28}
{"record-sequence": "FLCDICGADFTQKGNLLRHIKL [46F_47L_49D_50I_52G_53A_54D_55F_67L_, Q9UKT9]", "log2 fold change of degron read counts": -2.22}
{"record-sequence": "FKCPVCGANFTQKGNLLRHIKL [46F_47K_49P_50V_52G_53A_54N_55F_67L_, Q9UKT9]", "log2 fold change of degron read counts": -0.842}
{"record-sequence": "FRCNQCGHLFTQKGNLLRHIKL [46F_47R_49N_50Q_52G_53H_54L_55F_67L_, Q9UKT9]", "log2 fold change of degron read counts": -2.45}
{"record-sequence": "FFCEVCGAQFTQKGNLLRHIKL [46F_47F_49E_50V_52G_53A_54Q_55F_67L_, Q9UKT9]", "log2 fold change of degron read counts": 1.89}
{"record-sequence": "FLCEICGALFTQKGNLLRHIKL [46F_47L_49E_50I_52G_53A_54L_55F_67L_, Q9UKT9]", "log2 fold change of degron read counts": 1.46}
{"record-sequence": "FLCEICGAGFTQKGNLLRHIKL [46F_47L_49E_50I_52G_53A_54G_55F_67L_, Q9UKT9]", "log2 fold change of degron read counts": 0.798}
{"record-sequence": "FQCSVCGHDFTQKGNLLRHIKL [46F_47Q_49S_50V_52G_53H_54D_55F_67L_, Q9UKT9]", "log2 fold change of degron read counts": -3.17}
{"record-sequence": "FDCEICGALFTQKGNLLRHIKL [46F_47D_49E_50I_52G_53A_54L_55F_67L_, Q9UKT9]", "log2 fold change of degron read counts": -0.124}
{"record-sequence": "FQCEVCGAAFTQKGNLLRHIKL [46F_47Q_49E_50V_52G_53A_54A_55F_67L_, Q9UKT9]", "log2 fold change of degron read counts": 3.65}
{"record-sequence": "FDCNVCGAKFTQKGNLLRHIKL [46F_47D_49N_50V_52G_53A_54K_55F_67L_, Q9UKT9]", "log2 fold change of degron read counts": -0.891}
{"record-sequence": "FTCEVCGAQFTQKGNLLRHIKL [46F_47T_49E_50V_52G_53A_54Q_55F_67L_, Q9UKT9]", "log2 fold change of degron read counts": 2.79}
{"record-sequence": "LLCNQCGFACTQKGNLLRHIKL [46L_47L_49N_50Q_52G_53F_54A_55C_67L_, Q9UKT9]", "log2 fold change of degron read counts": -1.53}
{"record-sequence": "FYCPVCGAAFTQKGNLLRHIKL [46F_47Y_49P_50V_52G_53A_54A_55F_67L_, Q9UKT9]", "log2 fold change of degron read counts": 0.969}
{"record-sequence": "FMCEICGHVFTQKGNLLRHIKL [46F_47M_49E_50I_52G_53H_54V_55F_67L_, Q9UKT9]", "log2 fold change of degron read counts": -2.54}
{"record-sequence": "FWCEVCGAAFTQKGNLLRHIKL [46F_47W_49E_50V_52G_53A_54A_55F_67L_, Q9UKT9]", "log2 fold change of degron read counts": 1.54}
{"record-sequence": "FYCEICGAGFTQKGNLLRHIKL [46F_47Y_49E_50I_52G_53A_54G_55F_67L_, Q9UKT9]", "log2 fold change of degron read counts": 0.707}
{"record-sequence": "FECEICGRDFTQKGNLLRHIKL [46F_47E_49E_50I_52G_53R_54D_55F_67L_, Q9UKT9]", "log2 fold change of degron read counts": -2.82}
{"record-sequence": "FHCEVCGAAFTQKGNLLRHIKL [46F_47H_49E_50V_52G_53A_54A_55F_67L_, Q9UKT9]", "log2 fold change of degron read counts": 0.737}
{"record-sequence": "FYCNVCGAAFTQKGNLLRHIKL [46F_47Y_49N_50V_52G_53A_54A_55F_67L_, Q9UKT9]", "log2 fold change of degron read counts": -0.954}
{"record-sequence": "FWCEVCGANFTQKGNLLRHIKL [46F_47W_49E_50V_52G_53A_54N_55F_67L_, Q9UKT9]", "log2 fold change of degron read counts": 1.61}
{"record-sequence": "FRCPICGHQFTQKGNLLRHIKL [46F_47R_49P_50I_52G_53H_54Q_55F_67L_, Q9UKT9]", "log2 fold change of degron read counts": -1.65}
{"record-sequence": "FGCEICGAGFTQKGNLLRHIKL [46F_47G_49E_50I_52G_53A_54G_55F_67L_, Q9UKT9]", "log2 fold change of degron read counts": -0.108}
{"record-sequence": "FHCNQCGAVFTQKGNLLRHIKL [46F_47H_49N_50Q_52G_53A_54V_55F_67L_, Q9UKT9]", "log2 fold change of degron read counts": -2}
{"record-sequence": "FRCNICGAFFTQKGNLLRHIKL [46F_47R_49N_50I_52G_53A_54F_55F_67L_, Q9UKT9]", "log2 fold change of degron read counts": 0.791}
